molecular target: T1, AAV8; test: SPR, AAV on CM5 chip;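 note: surface plasmon resonance with AAV amine-coupled to the chip as ligand, nanobodies injected as analyte over a concentration series, rate constants and affinity fitted from binding curves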
T1 construct: also called adeno-associated virus serotype 8
The binders listed here are annotated with their kon.
Answer in M⁻¹ s⁻¹, number only, no unit symbol.

A4-041 (VHH) VHH: VQLQESGGGLVQPGGSLRLSCAASGRGFSINTMGWYRQAPGKQRELVATVTRGGSTNYANSVKGRFTISRDNAKNTVYLQMNSLRPEDTAVYYCHVDELRQSSWTTSNLWGQGTQVTVSS :: 1240
A4-037 (VHH) VHH: VQLQESGGGLVQPGGSLRLSCAASGSIFSINTMGWYRQAPGKQRELVATVTRGGSTNYAGSVKGRFTISRDNAKNTVYLQMNSLRPEDTAVYYCHLDEVRQSSWTTSNIWGQGTQVTVSS :: 129000
A4-007 (VHH) VHH: VQLQESGGGLVQAGGSLRLSCAASGRHFSINTMGWYRQAPGKQRELVAAVTRGGSTNYAGSVKGRFTISRDNAKNTVYLQMNSLRPEDTAVYYCHIDEVRQSSWTTSNIWGQGTQVTVSS :: 77300

Qu. Could you share which kon value was measured for A4-045 (VHH) VHH: VQLQESGGGLVQPGGSLRLSCAASGSSFSINTMGWYRQAPGKQRELVAAVTRGGVTNYADSVKGRFTISRDNAKNTVYLQMNSLRPEDTAVYYCHVDEVRQSSWTTSNLWGQGTQVTVSS ?
Ans. 9390
